Test system: SARS coronavirus 3C-like protease (3CLpro, nsp5)
protocolNotes: blockers of SARS 3CLpro activity – biochemical, fluorescence, set 2, late-stage follow-up (AID 488984)
recordedConditions: recombinant 3CLpro, fluorogenic peptide cleavage; at 100 µM
The source made the active and inactive calls. Cut-off read from the data, not from the text of the source: active = inhibition above about 55%; inactive = the rest.
Reply using exactly one outcome from t (active), f (inactive)

Exercise: Please state the recorded outcome for this molecule: CC(C)(C)NC(=O)C(c1ccsc1)N(C(=O)c1cccc2c1CCCC2)c1ccc(OCF)cc1 (stereo not drawn)
Key: f

Exercise: Outcome? CC(C)(C)NC(=O)C(c1cccnc1)N(C(=O)Cc1cccc2ccccc12)C1CC1 (stereo not drawn)
Key: f

Exercise: Hello, I am checking results. What call was entered for CC(C)(C)NC(=O)C(c1ccsc1)N(C(=O)c1n[nH]c2ccccc12)c1ccc(C(C)(C)C)cc1 (stereo not drawn) ?
Key: f

Exercise: Would you mind telling me which call this test gave CC(C)(C)NC(=O)C(c1cccnc1)N(C(=O)c1n[nH]c2ccccc12)c1ccc(OC(F)F)cc1 (stereo not drawn) ?
Key: f

Exercise: # lookup: test call for CCC(=O)Nc1ccc(N(C(=O)Cn2nnc3ccccc32)C(C(=O)NC(C)(C)C)c2ccsc2)cc1 (stereo not drawn)
Key: t

Exercise: So what was the verdict on CC(C)(C)NC(=O)C(c1ccsc1)N(C(=O)Cc1cccc2ccccc12)c1ccc(F)cc1 (stereo not drawn) in this test?
Key: f

Exercise: Please state the recorded outcome for this molecule: CC(C)(C)NC(=O)C(c1cccnc1)N(C(=O)Cc1c[nH]c2ccccc12)c1ccc(OCF)cc1 (stereo not drawn)
Key: f

Exercise: # outcome recorded in this test, key = CC(C)(C)NC(=O)C(c1cccnc1)N(C(=O)Cc1cccnc1)c1ccc(C(C)(C)C)cc1 (stereo not drawn)
Key: f

====

System: SARS coronavirus 3C-like protease (3CLpro, nsp5)
protocolNotes: blockers of SARS 3CLpro activity – biochemical, fluorescence, set 2, late-stage follow-up (AID 488984)
recordedConditions: recombinant 3CLpro, fluorogenic peptide cleavage; at 100 µM; active compounds read high
Calls of active or inactive are those of the source. Rule as the data show it: active = inhibition above about 55%; inactive = the rest.
# Lookup of reported inhibition keyed by entry

The examples below pair each entry with its known result.
For CC(C)(C)NC(=O)C(c1cccnc1)N(C(=O)c1cccc2c1CCCC2)c1ccc(C(C)(C)C)cc1 (centres undefined) the compound record lists inhibition as 12.7% (inactive)

// recorded inhibition for CC(C)(C)NC(=O)C(c1cccnc1)N(C(=O)Cc1cccnc1)C1CC1 (centres undefined) : 7.01% (inactive)

// inhibition lookup, compound = CC(C)c1ccc(N(C(=O)Cc2cccc3ccccc23)C(C(=O)NC(C)(C)C)c2cccnc2)cc1 (centres undefined) , result: -1.29% (inactive)

The compound CC(C)c1ccc(N(C(=O)c2ccc(C#N)cc2)C(C(=O)NC(C)(C)C)c2ccsc2)cc1 (centres undefined) showed inhibition equal to -5.45% (inactive)

// sample CC(C)(C)NC(=O)C(c1cccnc1)N(C(=O)c1ccc(C#N)cc1)C1CC1 (centres undefined) , its inhibition was -4.03% (inactive)

Briefly, inhibition measured for CC(C)(C)NC(=O)C(c1cccnc1)N(C(=O)c1n[nH]c2ccccc12)c1ccc(F)cc1 (centres undefined) : 9.24% (inactive)

# inhibition (compound: CC(C)(C)NC(=O)C(c1ccsc1)N(C(=O)c1ccco1)c1ccc(C(C)(C)C)cc1 (centres undefined) ) is 19.5% (inactive)

Looking up CC(C)(C)NC(=O)C(c1cccnc1)N(C(=O)c1n[nH]c2ccccc12)c1ccc(C(C)(C)C)cc1 (centres undefined) , I found its inhibition recorded as 20.6% (inactive)

Further cases:
inhibition reported for this compound CC(C)(C)NC(=O)C(c1cccnc1)N(C(=O)c1ccco1)C1CC1 (centres undefined) : -1.64% (inactive)
